- measured_target: T1, Fusion protein of extracellular domain of human TIGIT and His-tag (human TIGIT ECD-his) (human)
- T1 chain: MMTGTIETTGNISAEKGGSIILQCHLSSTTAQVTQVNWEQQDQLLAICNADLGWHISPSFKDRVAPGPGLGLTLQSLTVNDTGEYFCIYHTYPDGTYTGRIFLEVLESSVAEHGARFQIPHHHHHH
- measurement_notes: BIAcore
Hi there, I'd appreciate the recorded koff for every entry that follows.
One number for each entry, in s⁻¹.

- binder: "TIGIT-070-H2L3 (antibody, V domains shown, Humanized anti-TIGIT antibody) VH: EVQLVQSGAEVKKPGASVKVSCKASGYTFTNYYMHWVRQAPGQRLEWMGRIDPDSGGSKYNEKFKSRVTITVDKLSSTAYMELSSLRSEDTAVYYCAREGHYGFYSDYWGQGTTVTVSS VL: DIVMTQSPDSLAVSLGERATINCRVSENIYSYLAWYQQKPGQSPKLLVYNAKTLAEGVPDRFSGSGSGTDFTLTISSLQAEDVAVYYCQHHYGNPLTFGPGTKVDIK"
  koff, s⁻¹: 0.000134
- binder: "TIGIT-CHI-002 (antibody, V domains shown, Human-mouse chimeric antibody) VH: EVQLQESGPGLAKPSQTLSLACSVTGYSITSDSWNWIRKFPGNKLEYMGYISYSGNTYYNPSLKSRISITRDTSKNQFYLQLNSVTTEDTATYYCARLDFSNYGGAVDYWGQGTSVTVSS VL: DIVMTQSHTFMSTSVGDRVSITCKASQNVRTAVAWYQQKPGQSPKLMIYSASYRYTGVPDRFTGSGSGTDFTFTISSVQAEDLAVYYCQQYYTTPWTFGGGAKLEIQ"
  koff, s⁻¹: 0.0003

Query: Kindly indicate its recorded koff. Item: TIGIT-006-H1L1 (antibody, V domains shown, Humanized anti-TIGIT antibody) VH: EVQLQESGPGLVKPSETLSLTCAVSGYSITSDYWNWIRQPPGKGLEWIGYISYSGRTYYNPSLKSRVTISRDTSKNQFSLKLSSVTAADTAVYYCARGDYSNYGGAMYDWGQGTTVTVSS VL: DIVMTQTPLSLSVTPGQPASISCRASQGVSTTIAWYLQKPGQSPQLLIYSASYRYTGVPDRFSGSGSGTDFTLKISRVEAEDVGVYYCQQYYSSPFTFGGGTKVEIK
Reply: 0.000757
